B1: Homeobox protein SIX6, residues 134 to 184; numbered along this chain, O95475 (parent)
chain: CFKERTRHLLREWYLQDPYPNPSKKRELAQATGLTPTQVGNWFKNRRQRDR

Variants of: B1
Test: abundance fitness (aPCA) (normalised: wild type 0, dead -1); higher = more abundant; growth selection in yeast, the domain comes from the species named
Conditions: Homo sapiens
Record MET whenever abundance fitness is at -0.1 or higher; record NOT MET when lower.

>>> print(df.to_string())
                             record_sequence  answer_label
 0  CFKERTRHLLREWYLQDPYPNPSKKRELAQATGLTPTQVGNWFKNRRQQDR [R49Q]           MET
 1  CFKERTRHLLREWYLQDPYPNPSKGRELAQATGLTPTQVGNWFKNRRQRDR [K25G]       NOT MET
 2  CFKERTRHLLREWYLQDPYPNPSTKRELAQATGLTPTQVGNWFKNRRQRDR [K24T]           MET
 3  CFKERTRHLLREWYLQDPYPNPSKKRELAQATGLDPTQVGNWFKNRRQRDR [T35D]       NOT MET
 4  CFKERTRHLLREWYLQDPYPNPSKKRELAQITGLTPTQVGNWFKNRRQRDR [A31I]           MET
 5  CFKERTRHLLREWYLQDPYPNFSKKRELAQATGLTPTQVGNWFKNRRQRDR [P22F]       NOT MET
 6  CFKERTRHLLREWYLQDPYPNPSKKRELAQPTGLTPTQVGNWFKNRRQRDR [A31P]       NOT MET
 7  CFKERTRHLLREWYLQDPYPNPSKDRELAQATGLTPTQVGNWFKNRRQRDR [K25D]       NOT MET
 8  CFKERTRHLLREWYLQDPYPNPSKKRELAQATGLTPTQVGNWFRNRRQRDR [K44R]       NOT MET
 9  CFKERTRHLLREWYLQDPYPNPSKKRELAQATGLFPTQVGNWFKNRRQRDR [T35F]       NOT MET
10  CFKERTRHLLREWYLQDPYVNPSKKRELAQATGLTPTQVGNWFKNRRQRDR [P20V]       NOT MET
11  CFKERTRHLLREWYLQDPYPNPSKKRELAQATGLTPTQVGNWFKNRRRRDR [Q48R]           MET
12  CFKERTRHLLREWYLQDPYPNPSVKRELAQATGLTPTQVGNWFKNRRQRDR [K24V]       NOT MET
13  CFKERTRHLLREWYLQDPYPNPSKKRELADATGLTPTQVGNWFKNRRQRDR [Q30D]           MET
14  CFKERTRHLLREWYLQDPYPVPSKKRELAQATGLTPTQVGNWFKNRRQRDR [N21V]       NOT MET
15  CFKERTRHLLREWYLQDPYPNPSKKRELAQWTGLTPTQVGNWFKNRRQRDR [A31W]       NOT MET

Sourced from the Human Domainome abundance scans (Beltran et al. 2025)
